- experiment_notes: qHTS assay to identify small molecule agonists of the estrogen receptor alpha (ER-alpha) signaling pathway in the presence of an antagonist - cell viability counter screen (AID 1259386);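 note: cells exposed to compounds for 22 h at 37 °C before the viability read; nearly all actives have a fitted effect of over 30% in size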
- condition_description: VM7Luc4E2 viability, CellTiter-Fluor fluorescence, 22 h; series mostly up to 92.4 µM
- Excerpt: National Center for Advancing Translational Sciences [NCATS] NIH Chemical Genomics Center [NCGC] U.S. Environmental Protection Agency [EPA] National Institutes of Environmental Health Sciences [NIEHS] National Toxicology Program [NTP] U.S. Food and Drug Administration [FDA] Estrogen receptor (ER), a member of nuclear hormone receptor plays an important role in development, metabolic homeostasis and reproduction. […]
Results filed as inconclusive are left out. Calls of active or inactive are those of the source. Calls come from the whole dose curve; as a rule, active = well fitted cell-killing curve with a large enough effect in the repeat runs; inconclusive = weak or mixed curves, or effect the other way; inactive = no such curve, though single readings can be large or run the other way.
Pick from YES (active), NO (inactive) when you respond.

Before answering, review these 6 worked examples.
>>> group_label("CNC(=O)N(C)c1nc2ccccc2s1")
"NO"
>>> group_label("O=C(Nc1ccccc1)c1ccccc1I")
"NO"
>>> group_label("COC(=O)C1=CCCN(C)C1")
"NO"
>>> group_label("N#CCNCC#N")
"NO"
>>> group_label("O=[N+]([O-])c1cc(Cl)c(Cl)c(Cl)c1")
"NO"
>>> group_label("C[C@]12CC[C@H]3[C@@H](CC=C4C[C@@H](O)CC[C@@]43C)[C@@H]1CC[C@@H]2O")
"NO"

Qu. Test call for this compound, please: CC(C)(C)NCC(O)c1cc(Cl)c(N)c(Cl)c1 (configuration not stated)
Ans. YES
